System: L 1210
Test: cytotoxicity of INO2 BA with and without BSO, L 1210
Type: cell-based, murine
Settings: Mus musculus, L1210; INO2 BA alone, 48 hours; read-out: I50
MEASURED_PROPERTY: pIC50
For clarity, pIC50 is expressed as the negative log10 of concentration in mol/L.

Give pIC50 (L 1210) of the following compound: NC(=O)c1ccc(I)c([N+](=O)[O-])c1 [INO2 BA, 4-iodo-3-nitrobenzamide]
3.89

---

Experiment: metabolic conversion of INO2 BA to INH2 BA by 855-2 cells
Type: in vitro ADME
Conditions: 855-2 cells; 120 μM INO2 BA, 37° C.; read-out: rate of reduction of the nitro to the amino end-product
MEASURED_PROPERTY: metabolised at 18 h, 120 µM
Just the number plus its unit, please.

Quick one: metabolised at 18 h, 120 µM for NC(=O)c1ccc(I)c([N+](=O)[O-])c1 [INO2 BA, 4-iodo-3-nitrobenzamide] ?
2.2%
